Quick reference: inhibition in vivo at 12 mg/kg of the listed items.
# System: collagen-induced arthritis (CIA) in male DBA/1 mice
# Experiment Description: CIA model, Example 3 (cumulative scores vs untreated controls)
# Assay type: in vivo
# Details: Mus musculus; Dose 12 mg/kg
Measured Quantity: inhibition in vivo at 12 mg/kg

[[record]]
molecule = "CC(=O)c1cc(N(C)C)c2c(c1O)C(=O)C1=C(O)[C@]3(O)C(=O)C(C(N)=O)=C(O)C[C@@H]3C[C@@H]1C2 [Compound T]"
result = "10%"

[[record]]
molecule = "CC(=O)c1ccc(O)c2c1C[C@H]1C[C@H]3[C@H](N(C)C)C(O)=C(C(N)=O)C(=O)[C@@]3(O)C(O)=C1C2=O [C]"
result = "62%"

[[record]]
molecule = "CCc1cc(N(C)C)c2c(c1O)C(=O)C1=C(O)[C@]3(O)C(=O)C(C(N)=O)=C(O)C[C@@H]3C[C@@H]1C2 [Compound AF]"
result = "49%"

[[record]]
molecule = "CN(C)c1cc(-c2cccnc2)c(O)c2c1C[C@H]1C[C@H]3CC(O)=C(C(N)=O)C(=O)[C@@]3(O)C(O)=C1C2=O [AE]"
result = "65%"

[[record]]
molecule = "Cc1cc(N(C)C)c2c(c1O)C(=O)C1=C(O)[C@]3(O)C(=O)C(C(N)=O)=C(O)C[C@@H]3C[C@@H]1C2 [AM]"
result = "66%"

[[record]]
molecule = "COC(=O)c1cc(N(C)C)c2c(c1O)C(=O)C1=C(O)[C@]3(O)C(=O)C(C(N)=O)=C(O)C[C@@H]3C[C@@H]1C2 [Compound W]"
result = "32%"

[[record]]
molecule = "CN(C)c1cc(-c2ccnn2C)c(O)c2c1C[C@H]1C[C@H]3CC(O)=C(C(N)=O)C(=O)[C@@]3(O)C(O)=C1C2=O [AS]"
result = "30%"

[[record]]
molecule = "CC(C)c1cc(N(C)C)c2c(c1O)C(=O)C1=C(O)[C@]3(O)C(=O)C(C(N)=O)=C(O)[C@@H](N(C)C)[C@@H]3C[C@@H]1C2 [Compound J]"
result = "34%"

[[record]]
molecule = "CN(C)c1cc(-c2cccn2C)c(O)c2c1C[C@H]1C[C@H]3CC(O)=C(C(N)=O)C(=O)[C@@]3(O)C(O)=C1C2=O [Compound AT]"
result = "49%"

[[record]]
molecule = "CCC(=O)c1cc(N(C)C)c2c(c1O)C(=O)C1=C(O)[C@]3(O)C(=O)C(C(N)=O)=C(O)C[C@@H]3C[C@@H]1C2 [AL]"
result = "31%"

[[record]]
molecule = "CN(C)c1cc(-c2ccccc2)c(O)c2c1C[C@H]1C[C@H]3CC(O)=C(C(N)=O)C(=O)[C@@]3(O)C(O)=C1C2=O [AN]"
result = "49%"

